FYI, the data here is from the supplement of paper PMC6757056.

B1: library; a variant is named by its letters at N, in order (parent)
chain: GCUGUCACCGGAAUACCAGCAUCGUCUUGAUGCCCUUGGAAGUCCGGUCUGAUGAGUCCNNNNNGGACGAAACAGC

Variants of: B1
Test: FACS-Seq fitted mean relative fluorescence mCherry/BFP with ligand (log10 relative fluorescence); ligand concentration (+) FACS-Seq: 1 mM; higher = higher reporter protein expression
Conditions: HEK293T, ligand present: yes
Entry class follows FACS-Seq fitted mean (log10): low end: < 0.7; middle: ≥ 0.7 and < 1; high end: ≥ 1

Use the examples below as a reference point.
ACCGG    high end
GAAAG    high end
GCAUU    low end
ACUCA    low end

*Q* Which FACS-Seq fitted mean (log10) category applies to CCAUA here?
*A* high end

*Q* Then what about the variant CCACC ?
*A* middle

*Q* Then what about the variant CACCU ?
*A* middle

*Q* Then what about the variant UCCUG ?
*A* middle
